- Tested on: Enterococcus faecalis
- Assay type: cell-based
- Test context: 24 h
Non-standard residues stand in square brackets, D forms with d. Residues, ends and D or L forms follow the SMILES beside them. *: point of attachment. Decanoyl = CCCCCCCCCC(=O)*; dOrn = NCCC[C@@H](N)C(=O)O; Orn = NCCC[C@H](N)C(=O)O
Measurement label: MIC Enterococcus faecalis (µg/mL)
Express it in µg/mL; write the number only.

Record excerpt, results attached:
Given the compound CC[C@@H](C)[C@@H](NC(=O)[C@@H](NC(=O)[C@H](CO)NC(=O)[C@H](Cc1ccccc1)NC(=O)[C@@H](CCCN)NC(=O)[C@H](CO)NC(=O)[C@H](CO)NC(=O)[C@@H](Cc1ccccc1)NC(=O)[C@@H](CO)NC(=O)[C@H](NC(=O)[C@@H](CCCN)NC(=O)[C@H](N)Cc1ccccc1)[C@H](C)CC)C(C)C)C(=O)N[C@@H](CCCN)C(=O)O [5F] (H-[dF][dOrn][dI][dS][dF]SS[dOrn]FSV[dI][Orn]-OH) , what is its reported MIC Enterococcus faecalis?
32

Given the compound CCCCCCCCCC(=O)N[C@H](Cc1ccccc1)C(=O)N[C@H](CCCN)C(=O)N[C@@H](C(=O)N[C@H](CO)C(=O)N[C@H](Cc1c[nH]c2ccccc12)C(=O)N[C@@H](CO)C(=O)N[C@@H](CO)C(=O)N[C@H](CCCN)C(=O)N[C@@H](Cc1c[nH]c2ccccc12)C(=O)N[C@@H](CO)C(=O)N[C@H](C(=O)N[C@@H](C(=O)N[C@@H](CCCN)C(=O)O)[C@H](C)CC)C(C)C)[C@H](C)CC [1W, paenimucillin B] (Decanoyl-[dF][dOrn][dI][dS][dW]SS[dOrn]WSV[dI][Orn]-OH) , what is its reported MIC Enterococcus faecalis?
128

Given the compound CCCCCCCCCC(=O)N[C@H](Cc1ccccc1)C(=O)N[C@H](CCCN)C(=O)N[C@@H](C(=O)N[C@H](CO)C(=O)N[C@H](Cc1ccccc1)C(=O)N[C@@H](CO)C(=O)N[C@@H](CO)C(=O)N[C@H](CCCN)C(=O)N[C@@H](Cc1ccccc1)C(=O)N[C@@H](CO)C(=O)N[C@H](C(=O)N[C@@H](C(=O)N[C@@H](CCCN)C(=O)O)[C@H](C)CC)C(C)C)[C@H](C)CC [1F, paenimucillin A] (Decanoyl-[dF][dOrn][dI][dS][dF]SS[dOrn]FSV[dI][Orn]-OH) , what is its reported MIC Enterococcus faecalis?
32

Given the compound CC[C@@H](C)[C@@H](NC(=O)[C@@H](NC(=O)[C@H](CO)NC(=O)[C@H](Cc1c[nH]c2ccccc12)NC(=O)[C@@H](CCCN)NC(=O)[C@H](CO)NC(=O)[C@H](CO)NC(=O)[C@@H](Cc1c[nH]c2ccccc12)NC(=O)[C@@H](CO)NC(=O)[C@H](NC(=O)[C@@H](CCCN)NC(=O)[C@@H](Cc1ccccc1)NC(C)=O)[C@H](C)CC)C(C)C)C(=O)N[C@@H](CCCN)C(=O)O [4W] (Ac-[dF][dOrn][dI][dS][dW]SS[dOrn]WSV[dI][Orn]-OH) , what is its reported MIC Enterococcus faecalis?
4

Given the compound CC[C@@H](C)[C@@H](NC(=O)[C@@H](NC(=O)[C@H](CO)NC(=O)[C@H](Cc1c[nH]c2ccccc12)NC(=O)[C@@H](CCCN)NC(=O)[C@H](CO)NC(=O)[C@H](CO)NC(=O)[C@@H](Cc1c[nH]c2ccccc12)NC(=O)[C@@H](CO)NC(=O)[C@H](NC(=O)[C@@H](CCCN)NC(=O)[C@H](N)Cc1ccccc1)[C@H](C)CC)C(C)C)C(=O)N[C@@H](CCCN)C(=O)O [5W] (H-[dF][dOrn][dI][dS][dW]SS[dOrn]WSV[dI][Orn]-OH) , what is its reported MIC Enterococcus faecalis?
4

Please turn your attention to the following entry.
Given the compound CC[C@@H](C)[C@@H](NC(=O)[C@@H](NC(=O)[C@H](CO)NC(=O)[C@H](Cc1ccccc1)NC(=O)[C@@H](CCCN)NC(=O)[C@H](CO)NC(=O)[C@H](CO)NC(=O)[C@@H](Cc1ccccc1)NC(=O)[C@@H](CO)NC(=O)[C@H](NC(=O)[C@@H](CCCN)NC(=O)[C@@H](Cc1ccccc1)NC(C)=O)[C@H](C)CC)C(C)C)C(=O)N[C@@H](CCCN)C(=O)O [4F, paenimucillin C] (Ac-[dF][dOrn][dI][dS][dF]SS[dOrn]FSV[dI][Orn]-OH) , what is its reported MIC Enterococcus faecalis?
64

src = paper PMC5784245
